target: SARS2 protease (Severe acute respiratory syndrome coronavirus 2); test: SARS-CoV-2 protease inhibition assay (SARS2 FRET protease assay); type: biochemical; conditions: SARS-CoV-2 protease 25 nM, FRET, peptide substrate 1.3 μM, 30 minutes at 30° C., compounds 20 μM to 1.0 nM; read-out: IC50
pIC50: −log10 of the molar value.
pIC50 by entry:

{"columns": ["Molecule", "Comparison symbol", "pIC50"],
 "data": [
  ["CCOP(=O)(OCC)C(O)[C@H](CCC(=O)N1CCN(C(=O)OC(C)(C)C)C(c2ccccc2)C1)NC(=O)[C@H](CC1CCCCC1)NC(=O)OCc1cccc(Cl)c1 (stereo partly shown)", "<", 3.70],
  ["O=C[C@H](CCC(=O)NC1(Cc2ccccc2)CC1)NC(=O)[C@H](CC1CCCCC1)NC(=O)OCc1cccc(Cl)c1", "<", 3.70],
  ["COc1cccc2[nH]c(C(=O)N[C@@H](CC3CCCCC3)C(=O)NC(CC3CC4(CCOCC4)NC3=O)C(=O)C(=O)NC3CC3)cc12 (stereo partly shown)", "=", 6.52],
  ["CC(C)C[C@H](NC(=O)OC(c1ccc(Cl)cc1)C(C)(C)c1cccc(Cl)c1)C(=O)N[C@H](C=O)C[C@@H]1CCNC1=O (stereo partly shown)", "=", 6.28],
  ["O=C[C@H](C[C@@H]1CCNC1=O)NC(=O)[C@H](CC1CCCCC1)NC(=O)O[C@@H]1CCC[C@H]1Cc1cccc(Cl)c1", "=", 7.70],
  ["CC(C)C[C@H](NC(=O)OC1(Cc2cccnc2)CC1)C(=O)N[C@@H](C[C@@H]1CCNC1=O)C(O)S(=O)(=O)O (stereo partly shown)", "=", 5.34],
  ["CC(C)(c1cccc(Cl)c1)C(OC(=O)N[C@@H](CC1CCCCC1)C(=O)N[C@@H](C[C@@H]1CCNC1=O)C(=O)C(N)=O)c1ccc2ccccc2c1 (stereo partly shown)", "=", 6.34],
  ["CC(C)C[C@H](NC(=O)OC1CCN(C(=O)OC(C)(C)C)c2ccccc21)C(=O)N[C@@H](C[C@@H]1CCNC1=O)C(O)S(=O)(=O)O (stereo partly shown)", "=", 7.00],
  ["CC(C)(C)C(=O)N1CCC2(CC1)CC(CC(C=O)NC(=O)[C@H](CC1CCCCC1)NC(=O)OC1CCCC1Cc1cccc(Cl)c1)C(=O)N2 (stereo partly shown)", "=", 6.19],
  ["O=C(N[C@@H](CC1CCCCC1)C(=O)NC(CC1CC2(CCCCC2)NC1=O)C(=O)C(=O)NC1CC1)OC1CCCC1Cc1cccc(Cl)c1 (stereo partly shown)", "=", 6.21],
  ["CC(C)C[C@H](NC(=O)OC(c1ccccc1)C(C)(C)c1cccc(Cl)c1)C(=O)N[C@@H](C[C@@H]1CCNC1=O)C(=O)CO (stereo partly shown)", "=", 6.57],
  ["CCOP(=O)(OCC)C(O)C(CC1CC2(CCCCC2)NC1=O)NC(=O)C(CC(C)C)NC(=O)OCc1cccc(Cl)c1 (stereo in doubt)", "=", 4.75],
  ["CC(C)C[C@H](NC(=O)OC(Cc1cccc(Cl)c1)c1ccccc1)C(=O)N[C@@H](C[C@@H]1CCNC1=O)C(=O)NS(=O)(=O)C1CC1 (stereo partly shown)", "<", 4.70]
]}
